- system-name: bat ABCB1 (Pteropus alecto)
- Construct: gene PAL_GLEAN10013639; endogenous ABCB1 in PaKiT03 cells
- Sequence (L5JS44 1-1308): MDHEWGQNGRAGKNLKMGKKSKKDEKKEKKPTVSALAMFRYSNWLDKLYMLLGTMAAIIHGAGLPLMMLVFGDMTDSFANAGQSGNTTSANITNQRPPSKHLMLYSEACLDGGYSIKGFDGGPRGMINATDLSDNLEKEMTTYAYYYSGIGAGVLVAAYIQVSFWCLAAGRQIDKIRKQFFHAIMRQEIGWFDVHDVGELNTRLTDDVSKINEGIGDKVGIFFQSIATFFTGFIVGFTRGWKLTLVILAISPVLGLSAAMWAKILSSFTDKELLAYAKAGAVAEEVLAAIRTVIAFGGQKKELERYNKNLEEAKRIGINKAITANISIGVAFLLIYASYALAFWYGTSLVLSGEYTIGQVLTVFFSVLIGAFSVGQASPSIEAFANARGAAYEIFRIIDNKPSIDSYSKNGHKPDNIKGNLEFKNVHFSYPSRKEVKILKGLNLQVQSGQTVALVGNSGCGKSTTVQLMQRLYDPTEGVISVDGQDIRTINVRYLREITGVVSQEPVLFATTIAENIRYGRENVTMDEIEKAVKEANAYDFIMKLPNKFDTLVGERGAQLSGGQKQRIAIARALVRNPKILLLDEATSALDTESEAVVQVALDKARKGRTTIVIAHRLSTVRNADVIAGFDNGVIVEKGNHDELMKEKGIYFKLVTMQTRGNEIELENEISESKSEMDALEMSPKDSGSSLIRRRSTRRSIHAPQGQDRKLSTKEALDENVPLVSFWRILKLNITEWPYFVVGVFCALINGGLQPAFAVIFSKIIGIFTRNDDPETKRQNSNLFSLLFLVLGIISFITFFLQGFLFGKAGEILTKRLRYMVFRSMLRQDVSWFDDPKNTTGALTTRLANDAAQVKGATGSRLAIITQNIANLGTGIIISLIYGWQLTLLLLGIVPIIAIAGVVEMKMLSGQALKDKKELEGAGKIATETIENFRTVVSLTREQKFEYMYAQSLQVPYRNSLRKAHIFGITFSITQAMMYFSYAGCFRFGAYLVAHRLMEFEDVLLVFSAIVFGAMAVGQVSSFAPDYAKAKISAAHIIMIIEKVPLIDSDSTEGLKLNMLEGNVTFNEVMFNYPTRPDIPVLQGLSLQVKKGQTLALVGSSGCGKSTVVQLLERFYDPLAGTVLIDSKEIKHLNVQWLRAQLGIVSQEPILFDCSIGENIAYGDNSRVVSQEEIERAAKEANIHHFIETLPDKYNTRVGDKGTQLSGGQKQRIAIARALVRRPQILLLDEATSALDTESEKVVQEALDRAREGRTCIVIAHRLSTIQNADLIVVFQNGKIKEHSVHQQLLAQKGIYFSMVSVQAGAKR
- protocol-details: rhodamine […] efflux inhibition, flow cytometry, PaKiT03 cells
- Format: cell-based
recorded-metric: pIC50
To interpret pIC50, take it as minus log10 of a concentration measured in moles per litre.

Return reported pIC50. Input compound: COc1cc2c(cc1OC)CN(CCc1ccc(NC(=O)c3cc(OC)c(OC)cc3NC(=O)c3cnc4ccccc4c3)cc1)CC2 8.70

----------
- system-name: bat ABCB1 (Pteropus alecto)
- Construct: gene PAL_GLEAN10013639; endogenous ABCB1 in PaKiT03 cells
- protocol-details: rhodamine […] efflux inhibition, flow cytometry, PaKiT03 cells with ABCB1 KO control
- Format: cell-based
recorded-metric: IC50 (nM)
State just the number; it will be interpreted in nM.

// Input: O=C1N[C@@H](Cc2c[nH]c3ccccc23)C(=O)N2[C@H]1C[C@@]1(Cc3ccccc3)c3ccccc3N(Cc3ccccc3)[C@@H]21 . Output its IC50 only. 900
